Molecular target: human GPR 119 receptor (Homo sapiens, UniProt Q8TDV5)
Construct: expressed in transfected cells
Sequence (Q8TDV5 1-335): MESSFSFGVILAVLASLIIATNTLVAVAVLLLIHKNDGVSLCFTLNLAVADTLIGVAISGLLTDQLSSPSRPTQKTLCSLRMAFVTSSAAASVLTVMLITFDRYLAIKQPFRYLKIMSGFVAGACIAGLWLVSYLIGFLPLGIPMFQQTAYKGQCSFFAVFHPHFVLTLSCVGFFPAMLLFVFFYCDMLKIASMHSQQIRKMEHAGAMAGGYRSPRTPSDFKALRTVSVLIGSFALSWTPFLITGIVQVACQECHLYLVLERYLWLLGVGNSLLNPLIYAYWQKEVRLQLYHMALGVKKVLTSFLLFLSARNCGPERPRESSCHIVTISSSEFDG
Assay: cAMP assay in stable cell line expressing recombinant human GPR 119 receptor
Format: cell-based
Details: 1 uM compound; DMSO = 1
The label fulfilled is reserved for Fold increase in cyclic AMP with respective to DMSO strictly under 2 fold; not fulfilled covers values equal to or above it.

Worked set:
> print(dat)
                                   compound       category
1  Cc1c(Oc2ccc(/C=C3\SC(=O)NC3=O)cc2)ncnc1OC1CCN(c2nc(C(C)C)no2)CC1  not fulfilled
2  Cc1c(Oc2cccc(/C=C3\SC(=O)NC3=O)c2)ncnc1OC1CCN(C(=O)OCC(C)C)CC1      fulfilled
3  Cc1c(OCC2CCCN2C(=O)OC(C)(C)C)ncnc1Oc1cccc(/C=C2\SC(=O)NC2=O)c1 (centres unmarked)      fulfilled
4  CCc1cnc(N2CCC(Oc3ncnc(Oc4cccc(/C=C5\SC(=O)NC5=O)c4)c3C)CC2)nc1  not fulfilled
5  O=C1NC(=O)/C(=C/c2cccc(Oc3cc(OC4CCN(Cc5ccccc5)CC4)ncn3)c2)S1  not fulfilled

Q: Please check: Fold increase in cyclic AMP with respective to DMSO for "O=C1NC(=O)/C(=C/c2ccc(Oc3cc(OC4CCN(Cc5ccccc5)CC4)ncn3)cc2)S1" , strictly under 2 fold or not?
A: not fulfilled

Q: Given the entry "CCOC(=O)N1CCC(Oc2ncnc(Oc3cccc(/C=C4\SC(=O)NC4=O)c3)c2C)CC1" , would its reported Fold increase in cyclic AMP with respective to DMSO be below 2 fold?
A: not fulfilled

Q: Please state whether Fold increase in cyclic AMP with respective to DMSO is below 2 fold for "O=C1NC(=O)/C(=C/c2ccc(Oc3cc(OC4CCN(C(=O)OCc5ccccc5)CC4)ncn3)cc2)S1"
A: not fulfilled
